- measured_target: MAP3K2 (human) (UniProt Q9Y2U5)
- Sequence (Q9Y2U5 whole entry, looked up): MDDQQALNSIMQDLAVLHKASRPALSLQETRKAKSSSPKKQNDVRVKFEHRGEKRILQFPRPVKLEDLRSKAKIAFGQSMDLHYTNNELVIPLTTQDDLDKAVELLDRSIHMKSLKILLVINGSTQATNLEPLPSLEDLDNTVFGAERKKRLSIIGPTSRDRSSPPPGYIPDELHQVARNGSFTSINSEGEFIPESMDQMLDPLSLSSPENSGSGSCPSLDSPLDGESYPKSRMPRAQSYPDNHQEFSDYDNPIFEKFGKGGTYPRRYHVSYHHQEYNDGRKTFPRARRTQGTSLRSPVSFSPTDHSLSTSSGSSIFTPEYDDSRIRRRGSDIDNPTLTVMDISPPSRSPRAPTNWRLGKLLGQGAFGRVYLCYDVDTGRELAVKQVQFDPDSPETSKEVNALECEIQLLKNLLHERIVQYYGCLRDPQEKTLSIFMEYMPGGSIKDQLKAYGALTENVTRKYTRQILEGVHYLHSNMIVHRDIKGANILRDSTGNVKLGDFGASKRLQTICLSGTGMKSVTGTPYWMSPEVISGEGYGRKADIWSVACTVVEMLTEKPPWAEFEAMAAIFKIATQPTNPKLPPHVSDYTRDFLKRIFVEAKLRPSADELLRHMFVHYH
- method: radiometric filter-binding kinase assay, Kinase HotSpot
- condition_parameters: compound 0.5 µM; ATP 10 µM
Flag rule - residual activity less than 90% flags Condition met; the remaining entries get Condition not met.

Q: Dear colleague, could you confirm whether residual activity of N/C(=N\N=C/c1ccc(-c2cccc([N+](=O)[O-])c2)o1)N[N+](=O)[O-] falls below 90%? Thanks.
A: Condition not met

Q: Dear colleague, could you confirm whether residual activity of Cc1cc(Nc2nc(-c3ccccc3)nc3ccccc23)n[nH]1 falls below 90%? Thanks.
A: Condition met

Q: Dear colleague, could you confirm whether residual activity of COc1cc2c(N3CCN(C(=O)Nc4ccc(OC(C)C)cc4)CC3)ncnc2cc1OCCCN1CCCCC1 falls below 90%? Thanks.
A: Condition not met

Q: Dear colleague, could you confirm whether residual activity of O=C(c1ccccc1)c1ccc(N2CCOCC2)cc1O falls below 90%? Thanks.
A: Condition not met

Q: Dear colleague, could you confirm whether residual activity of COc1cccc(-c2cc(=O)c3ccccc3o2)c1N falls below 90%? Thanks.
A: Condition not met

Q: Dear colleague, could you confirm whether residual activity of CCCCc1c(-c2ccc(O)cc2)[nH]c2nccnc12 falls below 90%? Thanks.
A: Condition met

Q: Dear colleague, could you confirm whether residual activity of O=c1cc(N2CCOCC2)oc2c(-c3ccccc3)cccc12 falls below 90%? Thanks.
A: Condition not met

Q: Dear colleague, could you confirm whether residual activity of N#Cc1c(NC(=O)c2cccc3ccccc23)sc2c1CCCC2 falls below 90%? Thanks.
A: Condition met

Q: Dear colleague, could you confirm whether residual activity of COc1cc2c(cc1OC)-c1[nH]nc(Nc3cccc(F)c3)c1C2 falls below 90%? Thanks.
A: Condition met

Provenance of the data: the kinase profiling compilation of Christmann-Franck et al. (2016)
